# Tested on: primary human hepatic stellate cells (donor 1)
# experiment-description: scaled lipid accumulation score (0 = DMSO-like, 1 = nortriptyline-like); higher = stronger HSC inactivation (lipid re-accumulation), active = hit call of the paper
# assay-context: library stock concentration: 10 mM; 48 h
Where a name gives a salt, the structure may show the parent alone. In all, about 5,800 compounds went through this assay and about 620 (11%) showed activity.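 Rule for the calls: active = score above a cut-off or among the top three wells of a plate; in these data no inactive exceeds 0.85.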 The full list was thinned out, with actives kept by preference.
Outcomes: active, inactive

compound	class-name
CNCc1cc(-c2ccccc2F)n(S(=O)(=O)c2cccnc2)c1	inactive
Nc1ccc2c3c(cccc13)C(=O)NC2=O [4-Amino-1,8-naphthalimide]	active
CN1CCC(=C2c3ccccc3Sc3ccccc32)CC1 [Pimethixene maleate]	inactive
CN1CCC(=C2c3ccccc3CCc3cccnc32)CC1	inactive
O=C(O)c1ccc2ccccc2c1O.OCc1cc(C(O)CNCCCCCCOCCCCc2ccccc2)ccc1O (configuration not stated) [Salmeterol xinafoate]	active

====

Recorded scaled lipid accumulation score values for a group of compounds are listed next.
# System: primary human hepatic stellate cells (donor 1)
# experiment-description: scaled lipid accumulation score (0 = DMSO-like, 1 = nortriptyline-like); higher = stronger HSC inactivation (lipid re-accumulation), active = hit call of the paper
# assay-context: library stock concentration: 10 mM; 48 h
Where a name gives a salt, the structure may show the parent alone. Out of some 5,800 compounds screened, about 620 (11%) showed activity. The sample holds actives, similar compounds and a random draw of the others, so the mix is not that of the screen.

compound	scaled lipid accumulation score
CN1CCN(CC/C=C2/c3ccccc3Sc3ccc(S(=O)(=O)N(C)C)cc32)CC1	0.435
CN1CCN(C2=Nc3cc(Cl)ccc3Nc3ccccc32)CC1	0.977
C=CCNC(=O)c1cc([N+](=O)[O-])cc2c(=O)[nH]c(Nc3ccc(Cl)c(Cl)c3)nc12	0.02
COc1cc2nccc(Oc3ccc(NC(=O)Nc4cc(C)on4)c(Cl)c3)c2cc1OC	0.246
NCc1c[nH]c(=S)n1C1CCc2c(F)cc(F)cc2C1 [(R)-Nepicastat HCl]	0.361
Br.Br.CN(C)CCCc1cc(C(=O)Nc2ccc(-c3ccncc3)cc2)ccc1O	1.13

====

# System: primary human hepatic stellate cells (donor 1)
# experiment-description: scaled lipid accumulation score (0 = DMSO-like, 1 = nortriptyline-like); higher = stronger HSC inactivation (lipid re-accumulation), active = hit call of the paper
# assay-context: library stock concentration: 10 mM; 48 h
Where a name gives a salt, the structure may show the parent alone. About 620 (11%) of roughly 5,800 compounds showed activity.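 The calls were made as follows: active = score above a cut-off or among the top three wells of a plate; in these data no inactive exceeds 0.85.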 The sample as a whole holds a higher share of actives than the screen did.
Outcomes: t for active, f for inactive

molecule	target-of-assay	class-name
COc1cc(C)c(Sc2cnc(NC(=O)c3ccc(CNC(C)C(C)C)cc3)s2)cc1C(=O)N1CCN(C(C)=O)CC1 (stereo not drawn)	primary human hepatic stellate cells (donor 1)	t
CC(N)(C(=O)O)c1ccc(C(=O)O)cc1 (stereo not drawn)	primary human hepatic stellate cells (donor 1)	f
NC1(Cc2ccc(Cl)cc2)CCN(c2ncnc3[nH]ccc23)CC1	primary human hepatic stellate cells (donor 1)	t
c1ccc(N2CCN(CCCOc3ccc4c(c3)OCO4)CC2)cc1 [BP 554 maleate]	primary human hepatic stellate cells (donor 1)	f
Fc1ccc([C@@H]2CCNC[C@H]2COc2ccc3c(c2)OCO3)cc1 [Paroxetine hydrochloride]	primary human hepatic stellate cells (donor 1)	f
CC(C)[C@H](N)C(=O)OCC(CO)OCn1cnc2c(=O)nc(N)[nH]c21 (stereo partly drawn)	primary human hepatic stellate cells (donor 1)	f
O=c1ccc2cc(O)c(O)cc2o1	primary human hepatic stellate cells (donor 1)	f
Cl.Cl.NC1(c2ccc(-c3nc4ccn5c(=O)[nH]nc5c4cc3-c3ccccc3)cc2)CCC1	primary human hepatic stellate cells (donor 1)	t
Fc1ccc([C@@H]2CCNC[C@H]2COc2ccc3c(c2)OCO3)cc1 [Paroxetine hydrochloride hemihydrate (MW = 374.83)]	primary human hepatic stellate cells (donor 1)	f
Fc1ccc([C@@H]2CCNC[C@H]2COc2ccc3c(c2)OCO3)cc1 [Paroxetine HCl]	primary human hepatic stellate cells (donor 1)	f
CCC(=O)NC[C@H](Cc1ccc(OCCc2nc(-c3ccccc3)oc2C)cc1)N/C(C)=C\C(=O)c1ccc(C(F)(F)F)cc1	primary human hepatic stellate cells (donor 1)	f
CCN(CC)CCCCCCCCOC(=O)c1cc(OC)c(OC)c(OC)c1.Cl [TMB-8 hydrochloride]	primary human hepatic stellate cells (donor 1)	t
Oc1cccc(-c2nc(N3CCOCC3)c3oc4ncccc4c3n2)c1	primary human hepatic stellate cells (donor 1)	t
CCC(CC)CNc1cc(C(=O)NCCN(C)C)cc(S(=O)(=O)Nc2ccc(OC)cc2)c1	primary human hepatic stellate cells (donor 1)	t
Cl.Nc1ccc(C(=O)Nc2cccc(-c3nc(N4CCOCC4)c4oc5ncccc5c4n3)c2)cn1	primary human hepatic stellate cells (donor 1)	t
CCN(CC)CCOC(=O)c1cc(Cl)c(N)cc1OC [SDZ-205,557 hydrochloride]	primary human hepatic stellate cells (donor 1)	f
S=C=Nc1cccc(NC(=S)NCCCCNC(=S)Nc2cccc(N=C=S)c2)c1	primary human hepatic stellate cells (donor 1)	f
Cc1c(O)c(=O)ccn1C	primary human hepatic stellate cells (donor 1)	f
O=C1CCc2c(ccc3ccccc23)O1	primary human hepatic stellate cells (donor 1)	f
COc1cc(C(=O)NCc2ccc(OCCN(C)C)cc2)cc(OC)c1OC [Trimethobenzamide hydrochloride]	primary human hepatic stellate cells (donor 1)	f
COc1ccc(-n2nc(C(N)=O)c3c2C(=O)N(c2ccc(N4CCCCC4=O)cc2)CC3)cc1	primary human hepatic stellate cells (donor 1)	f
Cc1ccccc1N1CCN(S(=O)(=O)C[C@]23CC[C@H](C[C@@H]2NC(=O)[C@@H](N)CCS(C)(=O)=O)C3(C)C)CC1 [L-368,899 hydrochloride]	primary human hepatic stellate cells (donor 1)	f
CCN(CC)CCNC(=O)c1ccc(NS(C)(=O)=O)cc1 [Sematilide monohydrochloride monohydrate]	primary human hepatic stellate cells (donor 1)	f
COc1cc(/C=C/C(=O)N2CCCCCCC2)cc(OC)c1OC	primary human hepatic stellate cells (donor 1)	f
CC(=O)O.N=C(N)N/N=C/c1c(Cl)cccc1Cl [Guanabenz acetate]	primary human hepatic stellate cells (donor 1)	t
C#CCCCCCCCCCCCC(O)CC(O)CO (stereo not drawn)	primary human hepatic stellate cells (donor 1)	f
Nc1ccc(C(=O)Nc2cccc(-c3nc(N4CCOCC4)c4oc5ncccc5c4n3)c2)cn1	primary human hepatic stellate cells (donor 1)	t
O=S1(=O)c2cccc3cccc(c23)N1CCCN1CCN(c2ccc(F)cc2)CC1	primary human hepatic stellate cells (donor 1)	f

====

# Tested on: primary human hepatic stellate cells (donor 1)
# experiment-description: scaled lipid accumulation score (0 = DMSO-like, 1 = nortriptyline-like); higher = stronger HSC inactivation (lipid re-accumulation), active = hit call of the paper
# assay-context: 48 h
Where a name gives a salt, the structure may show the parent alone. Screen size: about 5,800 compounds; about 620 (11%) showed activity. The full list was thinned out, with actives kept by preference.

compound	scaled lipid accumulation score
CC(=O)c1ccc(S(=O)(=O)NC(=O)NC2CCCCC2)cc1 [Acetohexamide]	≤ 0 (inactive)
NC(=O)N1c2ccccc2C=Cc2ccccc21 [Carbamazepine]	≤ 0 (inactive)
CCN(CC)CCNC(=O)c1cc(S(C)(=O)=O)ccc1OC [Tiapride hydrochloride]	0.066 (inactive)
CN1CCN2c3ccccc3Cc3ccccc3C2C1 (stereo not drawn) [Mianserine hydrochloride]	0.681 (inactive)
CN1CCC(=C2c3ccccc3Sc3ccccc32)CC1 [Pimethixene maleate]	0.65 (inactive)
COC(=O)Nc1nc2cc(C(=O)c3ccccc3)ccc2[nH]1	≤ 0 (inactive)
C[C@H]1[C@H]2CC[C@H]3[C@@H]4CC=C5C[C@@H](N(C)C)CC[C@]5(C)[C@H]4CC[C@]23CN1C	0.137 (inactive)
CCN(CC)CC#CCOC(=O)C(O)(c1ccccc1)C1CCCCC1 (stereo not drawn) [Oxybutynin chloride]	0.397 (inactive)
C[C@H]1[C@H](C)CC[C@]2(C(=O)O)CC[C@]3(C)C(=CC[C@@H]4[C@@]5(C)CC[C@H](O)C(C)(C)[C@@H]5CC[C@]43C)[C@H]12	0.053 (inactive)
N/C(=N\C(=O)c1nc(Cl)c(N)nc1N)NCc1ccccc1 [Benzamil hydrochloride]	0.168 (inactive)
C=C1C(=O)O[C@H]2[C@H]1CC/C(C)=C/CC[C@@]1(C)O[C@@H]21 [Parthenolide]	0.539 (inactive)
CC(=O)c1ccc2c(c1)N(CCCN1CCC(CCO)CC1)c1ccccc1S2	0.427 (inactive)
COC(=O)C1=CO[C@@H](C)[C@H]2CN3CCc4c([nH]c5ccccc45)[C@@H]3C[C@H]12 [Ajmalicine hydrochloride]	0.17 (inactive)
C[C@H](CS)C(=O)N1CCC[C@H]1C(=O)O	0.036 (inactive)
Cc1c(C)c2c(c(C)c1O)CC[C@@](C)(CCC[C@H](C)CCC[C@H](C)CCCC(C)C)O2 (racemic) [Tocopherol (R,S)]	≤ 0 (inactive)
Nc1nc(=O)c2c([nH]1)NC[C@@H](CNc1ccc(C(=O)N[C@@H](CCC(=O)O)C(=O)O)cc1)N2C=O [Folinic acid calcium salt]	≤ 0 (inactive)
C#C[C@]1(O)CC[C@H]2[C@@H]3CCC4=CC(=O)CC[C@@H]4[C@H]3CC[C@@]21CC [Norgestrel-(-)-D]	≤ 0 (inactive)
CC12CC3CC(C)(C1)CC(N)(C3)C2 [Memantine Hydrochloride]	0.399 (inactive)
CN1[C@@H](CC(=O)c2ccccc2)CCC[C@H]1C[C@H](O)c1ccccc1 [Lobeline alpha (-) hydrochoride]	0.216 (inactive)
CCN(CC)CCCC(C)Nc1c2ccc(Cl)cc2nc2ccc(OC)cc12 (stereo not drawn) [Quinacrine dihydrochloride dihydrate]	0.288 (inactive)
N=C(N)NC(=O)Cc1c(Cl)cccc1Cl [Guanfacine hydrochloride]	≤ 0 (inactive)
Cl.C(=C(\CCN(C)C1)/C1)(/c2c(cccc2)C=C3)\c4c3cccc4 [Cyproheptadine hydrochloride]	0.968 (active)
CC(NCCC(c1ccccc1)c1ccccc1)c1ccccc1 (stereo not drawn) [Fendiline hydrochloride]	0.144 (inactive)
